tested on: PC26; test: qHTS profiling for inhibitors of Plasmodium falciparum proliferation (AID 504749); also: nearly all actives have a fitted effect of over 60% in size; details: P. falciparum in erythrocytes, SYBR Green DNA, 72 h; series mostly up to 28.7 µM
Results filed as inconclusive are left out. Activity calls are given as the source filed them. Calls follow the shape of the dose curve; as a rule, active = well fitted inhibition curve with a large enough effect; inconclusive = small, poorly fitted or top-dose-only effect; inactive = flat fitted curve, though single readings scatter.
Please answer using one outcome listed in True = active, False = inactive

Here's what some known entries look like.
Compound	Target system	Category
CC1(C)O[C@H]2C[C@@H]3[C@H]4CCC5=CC(=O)C=C[C@]5(C)[C@@]4(F)[C@@H](O)C[C@]3(C)[C@]2(C(=O)CO)O1	PC26	False
O=C1NC(=O)C(c2ccccc2)(c2ccccc2)N1	PC26	False
CCN(CC)C(=O)c1ccc(O)c(OC)c1	PC26	False
O=C(NCCN1CCOCC1)c1ccc(Cl)cc1	PC26	False
CCCCCN(C)CCC(O)(P(=O)(O)O)P(=O)(O)O	PC26	False

Alright, here's another compound for you.
Task item: Which outcome did this test record for the compound NCCS ?
Reply: False

Numbers sourced from PubChem BioAssay (NCATS).
